Consider the following molecules and their measured T/C readings.
# Tested on: L1210 leukemia ip in BDF1 mice, survival T/C
# Assay Explanation: NCI In Vivo Anticancer Drug Screen. Data for tumor model L1210 Leukemia (intraperitoneal) in B6D2F1 (BDF1) mice
# Experimental Setup: endpoint: mean survival time; dose: 100.0 mg/kg/injection; schedule: Q01DX001 (ip); vehicle: saline; higher = longer survival
Toxic doses and inconclusive results are not listed.

Molecule	T/C
CCOC(=O)CC(C)(C)C1CC1	96 % of control
CCOC=N	95 % of control
Cc1cc(SCc2ccccc2)cc(C)[o+]1	98 % of control
CN(C)CC/C=C1\c2ccccc2C(C)(C)c2ccc(Cl)cc21	87 % of control
Cc1ncc(O)c(CO)c1O	96 % of control
CC(=O)Nc1nncs1	115 % of control
N#Cc1ccc(CCc2ccc(Cl)cc2)cc1	95 % of control
CN(C)c1ccc(C2NC(c3ccccc3)c3c(ccc4ccccc34)O2)cc1 (stereo not given)	92 % of control

INPUT: Given the molecule CN(C(=O)Cc1ccccc1)c1ccccc1[N+](=O)[O-] , what is its reported T/C?
OUTPUT: 104 % of control

INPUT: Given the molecule COc1nc(N)nc2nc(N)c(-c3ccc(N(CCO)CCO)cc3)nc12 , what is its reported T/C?
OUTPUT: 95 % of control

---

# Test system: L1210 leukemia ip in BDF1 mice, survival T/C
# Assay Explanation: NCI In Vivo Anticancer Drug Screen. Data for tumor model L1210 Leukemia (intraperitoneal) in B6D2F1 (BDF1) mice
# Experimental Setup: endpoint: mean survival time; dose: 200.0 mg/kg/injection; schedule: Q04DX003 (ip); vehicle: Klucel (hydroxypropylcellulose) (HPC); higher = longer survival
Toxic doses and inconclusive results are not listed.
Measurement Kind: T/C

Compound	T/C
CCCCN(CCCC)CC(O)c1cccc2c1cc(Cl)c1ccccc12 (stereo not given)	97 % of control
O=C(C(=S)N1CCOCC1)c1ccccc1	104 % of control
COC(=O)c1cccc(OC)c1I	103 % of control
CC1(CCc2ccc(N)cc2)NC(=O)NC1=O (stereo not given)	96 % of control
CC(=O)Nc1cc2c(cc1[N+](=O)[O-])-c1ccc(F)cc1C2	100 % of control

Now look at this entry.
INPUT: Given the compound OCCCNc1nc2ccccc2c2ccccc12 , what is its reported T/C?
OUTPUT: 102 % of control

---

# System: L1210 leukemia ip in BDF1 mice, survival T/C
# Assay Explanation: NCI In Vivo Anticancer Drug Screen. Data for tumor model L1210 Leukemia (intraperitoneal) in B6D2F1 (BDF1) mice
# Experimental Setup: endpoint: mean survival time; dose: 200.0 mg/kg/injection; schedule: Q01DX009 (ip); vehicle: Klucel (hydroxypropylcellulose) (HPC); higher = longer survival
Inconclusive results and toxic doses are left out.
Measurement Kind: T/C

Solved entries:
Compound	Measurement Kind	Reading
O=C(NCc1ccc([N+](=O)[O-])cc1)OCc1ccccc1	T/C	102 % of control
COC(=O)c1cc(Cl)ccc1OCC(=O)Nc1cccc([N+](=O)[O-])c1	T/C	89 % of control
NC(=O)c1nc2ccccc2nc1C(N)=O	T/C	92 % of control

INPUT: Given the compound CSc1nc2ccccc2s1 , what is its reported T/C?
OUTPUT: 100 % of control

INPUT: Given the compound CCCCCCCCCCCCCCCCCC(=O)N/N=C/c1ccc(OCC)c(OC)c1 , what is its reported T/C?
OUTPUT: 91 % of control

INPUT: Given the compound N#CCN1Cc2ccccc2CCc2ccccc2C1 , what is its reported T/C?
OUTPUT: 107 % of control

INPUT: Given the compound CC1(C#N)CC(c2ccccc2)Nc2ccccc2N1 (centres undefined) , what is its reported T/C?
OUTPUT: 100 % of control

INPUT: Given the compound COc1ccccc1NS(=O)(=O)c1ccc(Cl)cc1 , what is its reported T/C?
OUTPUT: 112 % of control

INPUT: Given the compound O=C(/C=C/C=C\c1ccccc1)/C=C/C=C/c1ccccc1 , what is its reported T/C?
OUTPUT: 92 % of control

INPUT: Given the compound COc1ccc(/C(=N\O)C(c2ccc(OC)cc2)C(Cl)(Cl)Cl)cc1 (centres undefined) , what is its reported T/C?
OUTPUT: 95 % of control

INPUT: Given the compound ClC(Cl)(Cl)c1cccc(C(Cl)(Cl)Cl)c1 , what is its reported T/C?
OUTPUT: 101 % of control

---

Consider the following compounds and their measured T/C readings.
# System: L1210 leukemia ip in BDF1 mice, survival T/C
# Assay Explanation: NCI In Vivo Anticancer Drug Screen. Data for tumor model L1210 Leukemia (intraperitoneal) in B6D2F1 (BDF1) mice
# Experimental Setup: endpoint: mean survival time; dose: 400.0 mg/kg/injection; schedule: Q04DX003 (ip); vehicle: Klucel (hydroxypropylcellulose) (HPC); higher = longer survival
Toxic doses and inconclusive results are not listed.

Compound	T/C
CCSc1ncc(C(N)=O)c(N)n1	92 % of control
O=C(NC/C(Br)=C/Br)c1ccccc1	96 % of control
CCCCCCCCCC(=O)CC	93 % of control

INPUT: Given the compound NC(CCn1cnc2c(=O)[nH]cnc21)C(=O)O (stereo not drawn) , what is its reported T/C?
OUTPUT: 96 % of control

INPUT: Given the compound O=[N+]([O-])c1ccc(C2OC2c2ccccc2)cc1 (stereo not drawn) , what is its reported T/C?
OUTPUT: 97 % of control

INPUT: Given the compound Cc1ccc(N=C(c2ccc([N+](=O)[O-])cc2)c2ccc([N+](=O)[O-])cc2)cc1 , what is its reported T/C?
OUTPUT: 96 % of control

---

# Tested on: L1210 leukemia ip in BDF1 mice, survival T/C
# Assay Explanation: NCI In Vivo Anticancer Drug Screen. Data for tumor model L1210 Leukemia (intraperitoneal) in B6D2F1 (BDF1) mice
# Experimental Setup: endpoint: mean survival time; dose: 100.0 mg/kg/injection; schedule: Q01DX001 (ip); vehicle: Klucel (hydroxypropylcellulose) (HPC); higher = longer survival
Toxic doses and inconclusive results are not listed.
Measurement Kind: T/C

Compound	Reading
Cc1cc(C)c(S(=O)(=O)C(=O)/C=N/N)c(C)c1	96 % of control

INPUT: Lab note: need T/C for CCCCOC(=O)c1ccc(OC(=O)Nc2cccc(Cl)c2)cc1 on L1210 leukemia ip in BDF1 mice, survival T/C, anyone have it?
OUTPUT: 94 % of control

INPUT: Lab note: need T/C for CC(C)C(C)/C=C/C(C)C1CCC2C3CC=C4CC(O)CCC4(C)C3CCC12C (stereo not drawn) on L1210 leukemia ip in BDF1 mice, survival T/C, anyone have it?
OUTPUT: 97 % of control

---

# Tested on: L1210 leukemia ip in BDF1 mice, survival T/C
# Assay Explanation: NCI In Vivo Anticancer Drug Screen. Data for tumor model L1210 Leukemia (intraperitoneal) in B6D2F1 (BDF1) mice
# Experimental Setup: endpoint: mean survival time; dose: 100.0 mg/kg/injection; schedule: Q04DX002 (ip); vehicle: Klucel (hydroxypropylcellulose) (HPC); higher = longer survival
Toxic doses and inconclusive results are not listed.
Consider the following compounds and their measured T/C readings.

Solved entries:
Compound	T/C
CCOc1ccc2nc(C)cc(C)c2c1	98 % of control
O=C(Nc1cccc2ccccc12)Oc1ccc(C2CCCCC2)cc1	89 % of control
O=C(O)COc1cccc(Cl)c1F	100 % of control

INPUT: Given the compound COc1cccc(NC(=S)NC(Cc2ccccc2)c2ccccc2)c1 (stereo unspecified) , what is its reported T/C?
OUTPUT: 94 % of control

INPUT: Given the compound CCCC(=O)N1CCCCC1 , what is its reported T/C?
OUTPUT: 88 % of control

INPUT: Given the compound COC(=O)c1cc(Cl)ccc1OCC(=O)Nc1cccc([N+](=O)[O-])c1 , what is its reported T/C?
OUTPUT: 94 % of control

INPUT: Given the compound COc1ccc(C(=O)c2ccccc2)cc1 , what is its reported T/C?
OUTPUT: 115 % of control

INPUT: Given the compound Cc1cc(C)cc(OCCO)c1 , what is its reported T/C?
OUTPUT: 97 % of control

INPUT: Given the compound CCOC(=O)CC(C)=O.CCOC(=O)CC(C)=O.CCOC(=O)CC(C)=O.[Al] , what is its reported T/C?
OUTPUT: 100 % of control

INPUT: Given the compound CCN(CCO)C(=O)C1C(c2ccccc2)C1c1ccccc1 (stereo unspecified) , what is its reported T/C?
OUTPUT: 97 % of control

INPUT: Given the compound CCOC(=O)C(C)(C)CCC(C)(C)C(=O)OCC , what is its reported T/C?
OUTPUT: 97 % of control

INPUT: Given the compound Cc1ccc(CN(C)N=Nc2ccccc2)cc1 , what is its reported T/C?
OUTPUT: 91 % of control

INPUT: Given the compound COc1ccc(/C=C(\C(=O)O)c2cccc3ccccc23)cc1 , what is its reported T/C?
OUTPUT: 100 % of control

The measurements presented in this section are drawn from PubChem BioAssay AID248.
